target: COX-2 (Mus musculus, UniProt Q05769); experiment: Evaluation of COX-2 activity: PGE2 formation in aspirin-treated, LPS-stimulated mouse peritoneal macrophages; type: cell-based
Sequence (Q05769 18-604): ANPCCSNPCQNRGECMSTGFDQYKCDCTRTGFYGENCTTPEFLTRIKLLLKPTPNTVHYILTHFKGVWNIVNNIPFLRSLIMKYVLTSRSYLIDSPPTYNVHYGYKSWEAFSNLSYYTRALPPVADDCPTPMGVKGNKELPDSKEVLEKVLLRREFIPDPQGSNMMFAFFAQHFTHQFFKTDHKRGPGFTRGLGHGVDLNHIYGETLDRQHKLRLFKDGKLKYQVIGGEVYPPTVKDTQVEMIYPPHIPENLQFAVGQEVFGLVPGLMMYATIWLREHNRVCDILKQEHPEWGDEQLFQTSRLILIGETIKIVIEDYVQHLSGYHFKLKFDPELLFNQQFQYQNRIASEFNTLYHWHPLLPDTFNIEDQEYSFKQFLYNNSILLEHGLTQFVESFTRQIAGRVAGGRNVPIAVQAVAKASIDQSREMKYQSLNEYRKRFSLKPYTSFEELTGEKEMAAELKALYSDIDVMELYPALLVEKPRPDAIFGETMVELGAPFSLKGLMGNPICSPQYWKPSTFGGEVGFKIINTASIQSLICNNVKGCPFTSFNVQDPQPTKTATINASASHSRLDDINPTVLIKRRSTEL
# key: entry, value: IC50, μg/ml COX-2

{"MOLECULE": "Cc1cc(C2=C(c3cc(F)cc(F)c3)C(=O)C(C)(C)O2)ccc1S(N)(=O)=O", "TGT": "COX-2 (Mus musculus, UniProt Q05769)", "IC50, μg/ml COX-2 / µg/mL": 0.08}
{"MOLECULE": "CCC1(C)OC(c2ccc(S(N)(=O)=O)cc2)=C(c2ccsc2)C1=O (stereo not shown)", "TGT": "COX-2 (Mus musculus, UniProt Q05769)", "IC50, μg/ml COX-2 / µg/mL": 0.101}
{"MOLECULE": "CC1(C)OC(c2ccc(S(C)(=O)=O)c(Cl)c2)=C(c2ccccc2)C1=O", "TGT": "COX-2 (Mus musculus, UniProt Q05769)", "IC50, μg/ml COX-2 / µg/mL": 0.05}
{"MOLECULE": "Cn1cc(C2=C(c3ccc(S(N)(=O)=O)cc3)OC(C)(C)C2=O)cn1", "TGT": "COX-2 (Mus musculus, UniProt Q05769)", "IC50, μg/ml COX-2 / µg/mL": 0.03}
